target of assay: Acetylcholinesterase (Homo sapiens) (UniProt P22303)
Sequence (P22303 whole entry, looked up): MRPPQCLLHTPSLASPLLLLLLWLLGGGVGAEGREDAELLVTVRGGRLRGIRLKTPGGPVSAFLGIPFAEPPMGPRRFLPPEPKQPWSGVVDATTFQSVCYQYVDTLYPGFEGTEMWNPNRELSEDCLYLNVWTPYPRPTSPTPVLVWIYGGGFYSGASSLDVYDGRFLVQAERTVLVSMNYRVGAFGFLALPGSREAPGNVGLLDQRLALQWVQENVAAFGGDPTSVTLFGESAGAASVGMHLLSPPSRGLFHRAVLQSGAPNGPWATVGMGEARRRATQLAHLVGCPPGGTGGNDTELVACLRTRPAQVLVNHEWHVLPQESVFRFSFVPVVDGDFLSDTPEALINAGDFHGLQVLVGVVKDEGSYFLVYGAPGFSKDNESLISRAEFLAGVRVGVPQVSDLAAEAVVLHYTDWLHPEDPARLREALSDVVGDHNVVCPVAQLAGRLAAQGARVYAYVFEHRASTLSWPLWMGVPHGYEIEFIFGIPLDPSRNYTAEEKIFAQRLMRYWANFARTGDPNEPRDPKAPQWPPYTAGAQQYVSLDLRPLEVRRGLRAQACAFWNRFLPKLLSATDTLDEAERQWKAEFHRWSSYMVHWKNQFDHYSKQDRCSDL
protocol summary: Acetylcholinesterase (AChE) small molecule antagonists: enzyme-based qHTS assay with human liver microsomes (AID 1347399); further: nearly all actives have a fitted effect of over 60% in size
study conditions: qHTS inhibition; series mostly up to 115 µM
Calls of active or inactive are those of the source. The call rests on the fitted dose curve.
measured attribute: outcome

compound	measured attribute	value measured
CCCNC(C)(C)COC(=O)c1ccccc1	outcome	inactive
O=C(O)c1ccccc1[N+](=O)[O-]	outcome	inactive
c1ccc2[nH]ccc2c1	outcome	inactive
CCCOC(=O)c1ccc(C(=O)OCCC)nc1	outcome	inactive
CC(=O)Oc1ccccc1C(=O)O	outcome	inactive
COC(=O)Nc1nc2ccc(C(=O)c3cccs3)cc2[nH]1	outcome	inactive
CC(=O)c1ccccn1	outcome	inactive
COC(OC)C(C)c1ccccc1 (stereo unspecified)	outcome	inactive
CC(=O)OCC(COC(C)=O)OC(C)=O	outcome	inactive
CCCC(=O)OCOC(=O)C1=C(C)NC(C)=C(C(=O)OC)C1c1cccc(Cl)c1Cl (stereo unspecified)	outcome	inactive
O=C(O)Cc1cn(-c2ccccc2)nc1-c1ccc(Cl)cc1	outcome	inactive
CN(C)Cc1ccccc1O	outcome	inactive
CC(C)COC(=O)c1ccc(N)cc1	outcome	inactive
Nc1ccc2cc(S(=O)(=O)O)cc(O)c2c1	outcome	inactive
CCCCCCCCCCCCCCCCN	outcome	inactive
CC(C)OC(=O)c1ccccc1	outcome	inactive
CN/C(=C\[N+](=O)[O-])NCCSCc1csc(CN(C)C)n1	outcome	inactive
NCCS(=O)(=O)O	outcome	inactive
C[C@@H]1C[C@H]2O[C@@]3(O[C@@H]2C(C)(C)O)[C@H](O)[C@@]2(C)[C@@H]4CC[C@H]5C(C)(C)[C@@H](O[C@@H]6OC[C@@H](O)[C@H](O)[C@H]6O)CC[C@@]56C[C@@]46CC[C@]2(C)[C@@H]13	outcome	inactive
NNC(=O)OCc1ccccc1	outcome	inactive
CCCCN(CCC(=O)OCC)C(C)=O	outcome	inactive
CC1(C)Cc2cccc(N)c2O1	outcome	inactive
O=[N+]([O-])c1cc(N(CCO)CCO)ccc1NCCO	outcome	inactive
CN(C)[C@@H]1C(=O)C(C(N)=O)=C(O)[C@@]2(O)C(=O)C3=C(O)c4c(O)cccc4C[C@H]3C[C@@H]12	outcome	inactive
Nc1ccc2c(c1)C(=O)c1ccccc1C2=O	outcome	inactive
Cc1ncc(CSSCc2cnc(C)c(O)c2CO)c(CO)c1O	outcome	inactive
CCN(CCC#N)c1ccc(N=Nc2c(Cl)cc([N+](=O)[O-])cc2Cl)cc1	outcome	inactive
CC(C)COC(=O)CCCCC(=O)OCC(C)C	outcome	inactive
O=C1O[C@H]([C@@H](O)CO)C(O)=C1O	outcome	inactive
CC(=O)Oc1c(C)c(C)c2c(c1C)CC[C@@](C)(CCC[C@H](C)CCC[C@H](C)CCCC(C)C)O2	outcome	inactive
CCCCCCCC(=O)OCC(COC(=O)CCCCCCC)OC(=O)CCCCCCC	outcome	inactive
CC(C)(C)c1ccc(C(=O)CCCCl)cc1	outcome	inactive
OCC(CO)(CBr)CBr	outcome	inactive
C[n+]1ccn(CCO)c1	outcome	inactive
COc1ccc([C@@H]2CC(=O)c3c(O)cc(O[C@@H]4O[C@H](CO[C@@H]5O[C@@H](C)[C@H](O)[C@@H](O)[C@H]5O)[C@@H](O)[C@H](O)[C@H]4O)cc3O2)cc1OC	outcome	inactive
O=C1CCCCCN1	outcome	inactive
CCC(C)(CCC(C)C)C(=O)[O-].CCC(C)(CCC(C)C)C(=O)[O-].[Zn+2] (stereo unspecified)	outcome	inactive
O=C1C=CC(=O)O1	outcome	inactive
c1ccc2[nH]cnc2c1	outcome	inactive
CCCOC(=O)c1ccccc1	outcome	inactive
CCC(C)OC(=O)N1CCCCC1CCO (stereo unspecified)	outcome	inactive
Cc1cc(NC(=O)C(=O)O)cc(C)c1Oc1ccc(O)c2c1CCC2	outcome	inactive
CC(C)Cc1ccc(C(C)C(=O)O)cc1 (stereo unspecified)	outcome	inactive
CC(COc1ccc(C(C)(C)C)cc1)OS(=O)OCCCl (stereo unspecified)	outcome	inactive
C#C[C@]1(O)CC[C@H]2[C@@H]3CCc4cc(O)ccc4[C@H]3CC[C@@]21C	outcome	inactive
OCC1CC2CC1C1CCC(CO)C21 (stereo unspecified)	outcome	inactive
O=Cc1ccccc1O	outcome	inactive
CCOC(=O)O[C@]1(C(=O)OCCl)CC[C@H]2[C@@H]3CCC4=CC(=O)C=C[C@]4(C)[C@H]3[C@@H](O)C[C@@]21C	outcome	inactive
CC(C)[C@H](N)C(=O)OCCOCn1cnc2c(=O)[nH]c(N)nc21	outcome	inactive
C1CCCNCC1	outcome	inactive
CCCCCCCCOC(C)=O	outcome	inactive
